# Measurement Notes: Biodistribution of Ln-DOTATATE and Ln-DOTA-LM3 (multiplexed ICP-MS)
# Condition Parameters: female, CD1 nude, mouse, heart, intravenous, 0.5 nmol, Tissue uptake: Heart, 24 h p.i., AR42J tumor-bearing mice
Where a SMILES comes first, the peptide text is derived from it. Bridges are numbered along the chain shown (N, C = ends). [ ]: non-standard residue; d: D form. The star is where a group is joined. DOTA = O=C(O)CN1CCN(CC(=O)O)CCN(CC(=O)*)CCN(CC(=O)O)CC1; dPhe(4-NHCONH2) = NC(=O)Nc1ccc(C[C@@H](N)C(=O)O)cc1; Phe(4-Cl) = N[C@@H](Cc1ccc(Cl)cc1)C(=O)O
Readout: tissue uptake at 24 h

Task: Endpoint output: tissue uptake at 24 h of C[C@@H](O)[C@@H]1NC(=O)[C@H](CCCCN)NC(=O)[C@@H](Cc2ccc(NC(N)=O)cc2)NC(=O)[C@H](Cc2ccc(O)cc2)NC(=O)[C@H](NC(=O)[C@H](Cc2ccc(Cl)cc2)NC(=O)CN2CCN(CC(=O)O)CCN(CC(=O)O)CCN(CC(=O)O)CC2)CSSC[C@@H](C(=O)N[C@H](Cc2ccc(O)cc2)C(N)=O)NC1=O [[^175Lu]Lu-DOTA-LM3] ({DOTA}-[Phe(4-Cl)][dC]Y[dPhe(4-NHCONH2)]KTC[dY]-NH2; disulfide 2-7 (inferred); C-terminus assumed) . Value?
Result: < 0.5 %ID/g
